- Test: chemical genetic growth profiling, strain panel (AID 1159580);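 also: tested at 20 µM; growth read once vehicle control cultures reached saturation at 30 °C; 1 = growth at the plate median or of vehicle wells; lower values mean less growth of the strain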
- Conditions: S. cerevisiae deletion strains, growth OD, locus YER167W, strain BCK2, active compounds read low
Among all 5,500 compounds or so, about 2,000 (36%) were called active. Not shown: some 18% with an inconclusive outcome. The list shows a part of the results.
Answer each item with its documented normalized growth.
One number for each entry.

Examples from the recorded data:
CCCCOc1ccc(CC(=O)NO)cc1 | 0.989
OCCN(CCO)c1nc(N2CCCCC2)c2nc(N(CCO)CCO)nc(N3CCCCC3)c2n1 | 1.02
NC/C=C/C(=O)O | 1.05

Below are 5 molecules. Give each one its normalized growth.
1. COc1c2c(c(CC=C(C)C)c3oc(=O)c(-c4ccc(O)cc4)c(O)c13)OC(C)(C)C=C2
2. CCC(C(N)=O)c1ccccc1 (stereo not given)
3. O=C(/C=C/C=C/c1ccc2c(c1)OCO2)N1CCCCC1
4. CCc1nc(N)nc(N)c1-c1ccc(Cl)cc1
5. N=c1nc(N2CCCCC2)cc(N)n1O

0.806
1.01
0.907
1.01
0.989

Lab note: each molecule below needs its normalized growth filled in.
1. CC(C(=O)O)c1ccc2c(c1)[nH]c1ccc(Cl)cc12 (stereo not given)
2. O=C(O)c1ccccc1OP(=O)(O)O

[1, 1.01]
